- Tested on: HeLa Kyoto;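 also: HeLa Kyoto cells synchronized by double thymidine or nocodazole block, proteins quantified by TMT10plex mass spectrometry, three independent biological replicates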
- test: melting temperature (median over replicates), in situ; higher = more thermally stable
- stated conditions: cell cycle stage: mitosis
// melting temperature lookup, one value per entry
The reply should contain only the number, in °C.

Completed entries (count: 2):
{"sequence entry": "MAERGYSFSLTTFSPSGKLVQIEYALAAVAGGAPSVGIKAANGVVLATEKKQKSILYDERSVHKVEPITKHIGLVYSGMGPDYRVLVHRARKLAQQYYLVYQEPIPTAQLVQRVASVMQEYTQSGGVRPFGVSLLICGWNEGRPYLFQSDPSGAYFAWKATAMGKNYVNGKTFLEKRYNEDLELEDAIHTAILTLKESFEGQMTEDNIEVGICNEAGFRRLTPTEVKDYLAAIA [PSMA2]", "target entity": "HeLa Kyoto", "reading unit": "°C", "melting temperature": 60.8}
{"sequence entry": "MEGSLEREAPAGALAAVLKHSSTLPPESTQVRGYDFNRGVNYRALLEAFGTTGFQATNFGRAVQQVNAMIEKKLEPLSQDEDQHADLTQSRRPLTSCTIFLGYTSNLISSGIRETIRYLVQHNMVDVLVTTAGGVEEDLIKCLAPTYLGEFSLRGKELRENGINRIGNLLVPNENYCKFEDWLMPILDQMVMEQNTEGVKWTPSKMIARLGKEINNPESVYYWAQKNHIPVFSPALTDGSLGDMIFFHSYKNPGLVLDIVEDLRLINTQAIFAKCTGMIILGGGVVKHHIANANLMRNGADYAVYINTAQEFDGSDSGARPDEAVSWGKIRVDAQPVKVYADASLVFPLLVAETFAQKMDAFMHEKNED [DHPS]", "target entity": "HeLa Kyoto", "reading unit": "°C", "melting temperature": 56.8}

We next turn to a different sequence, shown below.
Lookup: What measured melting temperature goes with MADEATRRVVSEIPVLKTNAGPRDRELWVQRLKEEYQSLIRYVENNKNADNDWFRLESNKEGTRWFGKCWYIHDLLKYEFDIEFDIPITYPTTAPEIAVPELDGKTAKMYRGGKICLTDHFKPLWARNVPKFGLAHLMALGLGPWLAVEIPDLIQKGVIQHKEKCNQ [UFC1] ?
Found: 52.9
